# Type: in vivo, human
# Measurement setup: both, human, plasma, oral, t1/2, non-PMs, Morbidly obese (BMI >99%); mean (SD)
Quantity measured: half-life (h)
Report the value in h with no unit label.

Inquiry: Give the reported half-life for this compound. COc1ccnc(C[S+]([O-])c2nc3ccc(OC(F)F)cc3[nH]2)c1OC (stereo not shown)
Reply text: 1.03

====

# Type: in vivo, human
# Measurement setup: both, human, plasma, oral, t1/2, obese non-PMs, ALT High (>Q3); mean (SD)
Quantity measured: half-life (min)
Report the value in min with no unit label.

Inquiry: Give the reported half-life for this compound. COc1ccnc(C[S+]([O-])c2nc3ccc(OC(F)F)cc3[nH]2)c1OC (stereo not shown)
Reply text: 57.6

====

# Format: in vivo, human
# Measurement setup: both, human, plasma, oral, Uncorrected AUC0-∞, obese, age 12–17 y (n = 21); mean ± SD
Quantity measured: AUC(0-inf) (ng·h/mL)
Report the value in ng·h/mL with no unit label.

Inquiry: Give the reported AUC(0-inf) for this compound. COc1ccnc(C[S+]([O-])c2nc3ccc(OC(F)F)cc3[nH]2)c1OC (stereo not shown) [pantoprazole]
Reply text: 7690

====

# Type: in vivo, human
# Measurement setup: both, human, plasma, im, t1/2, obese, 2C19 genotype IM; mean (SD)
Quantity measured: half-life (h)
Report the value in h with no unit label.

Inquiry: Give the reported half-life for this molecule. COc1ccnc(C[S+]([O-])c2nc3ccc(OC(F)F)cc3[nH]2)c1OC (stereo not shown)
Reply text: 1.05

====

# Format: in vivo, human
# Measurement setup: both, human, plasma, oral, t1/2, obese non-PMs, ALT Low (<Q1); mean (SD)
Quantity measured: half-life (min)
Report the value in min with no unit label.

Inquiry: Give the reported half-life for this compound. COc1ccnc(C[S+]([O-])c2nc3ccc(OC(F)F)cc3[nH]2)c1OC (stereo not shown) [pantoprazole]
Reply text: 58.2

====

# Assay type: in vivo, human
# Measurement setup: both, human, plasma, oral
Quantity measured: Cmax (ng/mL)
Report the value in ng/mL with no unit label.

Inquiry: Give the reported Cmax for this molecule. COc1ccnc(C[S+]([O-])c2nc3ccc(OC(F)F)cc3[nH]2)c1OC (stereo not shown) [pantoprazole]
Reply text: 4100

====

# Format: in vivo, human
# Measurement setup: both, human, plasma, oral, t1/2, obese non-PMs, AST Low (<Q1); mean (SD)
Quantity measured: half-life
Please state the number and follow it with the unit.

Inquiry: Give the reported half-life for this molecule. COc1ccnc(C[S+]([O-])c2nc3ccc(OC(F)F)cc3[nH]2)c1OC (stereo not shown) [pantoprazole]
Reply text: 1.06 h

====

# Type: in vivo, human
# Measurement setup: male, human, plasma, oral, t1/2, obese non-PMs; mean (SD)
Quantity measured: half-life

Inquiry: Give the reported half-life for this compound. COc1ccnc(C[S+]([O-])c2nc3ccc(OC(F)F)cc3[nH]2)c1OC (stereo not shown)
Reply text: 57 min

====

# Assay type: in vivo, human
# Measurement setup: both, human, plasma, oral, Uncorrected AUC0-∞, obese, age 6–11 y (n = 18); mean ± SD
Quantity measured: AUC(0-inf) (ng·h/mL)
Report the value in ng·h/mL with no unit label.

Inquiry: Give the reported AUC(0-inf) for this compound. COc1ccnc(C[S+]([O-])c2nc3ccc(OC(F)F)cc3[nH]2)c1OC (stereo not shown) [pantoprazole]
Reply text: 6260
